TARGET OR SYSTEM: Sigma non-opioid intracellular receptor 1 (Rattus norvegicus, UniProt Q9R0C9)
Sequence (Q9R0C9 whole entry): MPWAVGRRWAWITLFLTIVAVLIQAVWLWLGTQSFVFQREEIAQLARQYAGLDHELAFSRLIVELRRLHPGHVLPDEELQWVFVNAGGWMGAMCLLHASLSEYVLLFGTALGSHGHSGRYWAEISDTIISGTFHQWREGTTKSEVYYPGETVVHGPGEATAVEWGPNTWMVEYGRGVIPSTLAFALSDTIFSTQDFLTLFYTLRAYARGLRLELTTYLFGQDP
EXPERIMENT NOTES: Evaluated for the binding affinity towards sigma 1 receptor by displacing the radioligand [3H]-SKF- 10047 in whole rat brain membrane.
pIC50: −log10 of the molar value.

[
  {
    "COMPOUND": "CC1(C)CCCN(CCCC2CCc3ccccc32)C1 (stereo not given)",
    "RESULT MODIFIER": "=",
    "pIC50": 8.16
  },
  {
    "COMPOUND": "CC1(C)CCCN(CCCC2=CCc3ccccc32)C1",
    "RESULT MODIFIER": "=",
    "pIC50": 9.00
  },
  {
    "COMPOUND": "COc1cccc2c1CCCC2CCCN1CCCC(C)(C)C1 (stereo in doubt; (-)-22)",
    "RESULT MODIFIER": "=",
    "pIC50": 9.07
  },
  {
    "COMPOUND": "COc1cccc2c1CCCC2CCCCN1CCCC(C)(C)C1 (stereo not given)",
    "RESULT MODIFIER": "=",
    "pIC50": 6.01
  },
  {
    "COMPOUND": "CC1(C)CCCN(CCCCC2=CCCc3ccccc32)C1",
    "RESULT MODIFIER": "=",
    "pIC50": 5.02
  },
  {
    "COMPOUND": "CC1(C)CCCN(CCCCC2CCCc3ccccc32)C1 (stereo not given)",
    "RESULT MODIFIER": "=",
    "pIC50": 9.16
  },
  {
    "COMPOUND": "COc1ccc2c(c1)CCC2CCCN1CCCC(C)(C)C1 (stereo not given)",
    "RESULT MODIFIER": "=",
    "pIC50": 5.33
  },
  {
    "COMPOUND": "COc1cccc2c1CCCC2CCCN1CCCC(C)(C)C1 (racemic)",
    "RESULT MODIFIER": "=",
    "pIC50": 9.32
  },
  {
    "COMPOUND": "CC1(C)CCCN(CCCCCc2ccccc2)C1",
    "RESULT MODIFIER": "=",
    "pIC50": 5.23
  },
  {
    "COMPOUND": "COc1ccc2c(c1)CCCC2CCCCN1CCCC(C)(C)C1 (stereo not given)",
    "RESULT MODIFIER": "=",
    "pIC50": 5.67
  },
  {
    "COMPOUND": "COc1ccc2c(c1)CCCC2CCCN1CCCC(C)(C)C1 (stereo not given)",
    "RESULT MODIFIER": "<",
    "pIC50": 5.00
  },
  {
    "COMPOUND": "COc1cccc2c1CCC2CCCCN1CCCC(C)(C)C1 (stereo not given)",
    "RESULT MODIFIER": "=",
    "pIC50": 8.03
  },
  {
    "COMPOUND": "CC1(C)CCCN(CCCC2CCCc3ccccc32)C1 (stereo not given)",
    "RESULT MODIFIER": "=",
    "pIC50": 6.60
  },
  {
    "COMPOUND": "CC1(C)CCCN(CCCCCC2CCCc3ccccc32)C1 (stereo not given)",
    "RESULT MODIFIER": "=",
    "pIC50": 5.82
  },
  {
    "COMPOUND": "CC1(C)CCCN(CCC2CCCc3ccccc32)C1 (stereo not given)",
    "RESULT MODIFIER": "<",
    "pIC50": 5.00
  },
  {
    "COMPOUND": "COc1ccc2c(c1)CCCC2CCCCCN1CCCC(C)(C)C1 (stereo not given)",
    "RESULT MODIFIER": "=",
    "pIC50": 9.21
  },
  {
    "COMPOUND": "COc1ccc2c(c1)C(CCCCN1CCCC(C)(C)C1)CCC2 (stereo not given)",
    "RESULT MODIFIER": "=",
    "pIC50": 7.59
  },
  {
    "COMPOUND": "COc1ccc2c(c1)C(CCCN1CCCC(C)(C)C1)CCC2 (stereo not given)",
    "RESULT MODIFIER": "=",
    "pIC50": 7.66
  },
  {
    "COMPOUND": "CC1(C)CCCN(CCCC2CCCc3c(O)cccc32)C1 (stereo not given)",
    "RESULT MODIFIER": "=",
    "pIC50": 7.39
  },
  {
    "COMPOUND": "COc1cccc2c1CCCC2CCCN1CCCC(C)(C)C1 (single isomer, unassigned; (+))",
    "RESULT MODIFIER": "=",
    "pIC50": 10.05
  }
]
